# assayedSystem: UniProt P28845
# Sequence (P28845 whole entry): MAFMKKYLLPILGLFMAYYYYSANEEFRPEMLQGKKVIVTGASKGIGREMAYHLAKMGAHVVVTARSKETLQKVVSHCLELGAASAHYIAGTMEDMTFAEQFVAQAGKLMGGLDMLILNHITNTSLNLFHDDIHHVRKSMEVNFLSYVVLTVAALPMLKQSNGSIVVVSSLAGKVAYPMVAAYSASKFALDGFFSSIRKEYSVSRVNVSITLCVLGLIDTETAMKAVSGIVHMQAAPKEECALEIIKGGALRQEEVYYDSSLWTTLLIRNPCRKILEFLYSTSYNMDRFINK
# experimentSummary: Inhibition of human recombinant 11beta-HSD1 expressed in HEK293 cells assessed as conversion of [1,2-3H]-cortisone to cortisol by scintillation counting
experimentalEndpoint: IC50 (nM)

[[record]]
compoundstructurestring = "CC(=O)O[C@H]1CC[C@]2(C)[C@H]3C(=O)C=C4[C@@H]5C[C@@](C)(C(=O)NO)CC[C@]5(C)CC[C@@]4(C)[C@]3(C)CC[C@H]2C1(C)C"
endpointresult = 626

[[record]]
compoundstructurestring = "CC1(C)C(=O)CC[C@]2(C)[C@H]3C(=O)C=C4[C@@H]5C[C@@](C)(C(=O)O)CC[C@]5(C)CC[C@@]4(C)[C@]3(C)CC[C@@H]12"
endpointresult = 619

[[record]]
compoundstructurestring = "CONC(=O)[C@@]1(C)CC[C@]2(C)CC[C@]3(C)C(=CC(=O)[C@@H]4[C@@]5(C)CC[C@H](O)C(C)(C)[C@@H]5CC[C@]43C)[C@@H]2C1"
endpointresult = 929

[[record]]
compoundstructurestring = "CON[C@@H]1CC[C@]2(C)[C@H]3C(=O)C=C4[C@@H]5C[C@@](C)(C(=O)O)CC[C@]5(C)CC[C@@]4(C)[C@]3(C)CC[C@H]2C1(C)C"
endpointresult = 61.9

[[record]]
compoundstructurestring = "CC(=O)N[C@H]1CC[C@]2(C)[C@H]3C(=O)C=C4[C@@H]5C[C@@](C)(C(=O)O)CC[C@]5(C)CC[C@@]4(C)[C@]3(C)CC[C@H]2C1(C)C"
endpointresult = 825

[[record]]
compoundstructurestring = "CC1(C)[C@@H](O)CC[C@]2(C)[C@H]3C(=O)C=C4[C@@H]5C[C@@](C)(C(=O)NO)CC[C@]5(C)CC[C@@]4(C)[C@]3(C)CC[C@@H]12"
endpointresult = 1160

[[record]]
compoundstructurestring = "CON[C@H]1CC[C@]2(C)[C@H]3C(=O)C=C4[C@@H]5C[C@@](C)(C(=O)O)CC[C@]5(C)CC[C@@]4(C)[C@]3(C)CC[C@H]2C1(C)C"
endpointresult = 42.7

[[record]]
compoundstructurestring = "CO/N=C1\\CC[C@]2(C)[C@H]3C(=O)C=C4[C@@H]5C[C@@](C)(C(=O)O)CC[C@]5(C)CC[C@@]4(C)[C@]3(C)CC[C@H]2C1(C)C"
endpointresult = 1510

